Measured values drawn from ChEMBL document CHEMBL4414548 for this set.

Measured concentration at 5 h accompanies every entry in the list below.
# protocol_details: Drug concentration in Balb/c mouse at 10 mg/kg, po after 5 hrs
# Assay type: ADME, organism-based
# condition_label: in vivo, read-out: Drug uptake
property_label: concentration at 5 h (nM)

> print(dat)
                                smiles.text        property.label  result
1  [2H]C([2H])([2H])NC(=O)c1cnc(Nc2ccc(F)cn2)cc1Nc1ccccc1S(C)(=O)=O  concentration at 5 h    1300
2  CNC(=O)c1cnc(Nc2ccc(F)cn2)cc1Nc1ccccc1S(C)(=O)=O  concentration at 5 h    1400

---

# protocol_details: Oral bioavailability in Balb/c mouse at 10 mg/kg
# Format: ADME, organism-based
# condition_label: in vivo
property_label: bioavailability (%)

> print(dat)
                                smiles.text  result
1  CNC(=O)c1cnc(Nc2ccc(F)cn2)cc1Nc1ccccc1S(C)(=O)=O      35

---

# protocol_details: Drug concentration in Balb/c mouse at 3 mg/kg, iv after 0.5 hrs
# Assay type: ADME, organism-based
# condition_label: in vivo, read-out: Drug uptake
Measured concentration at 0.5 h accompanies every entry in the list below.
property_label: concentration at 0.5 h (nM)

> print(dat)
                                smiles.text          property.label  result
1  [2H]C([2H])([2H])NC(=O)c1cnc(Nc2ccc(F)cn2)cc1Nc1ccccc1S(C)(=O)=O  concentration at 0.5 h    2400
2  CNC(=O)c1cnc(Nc2ccc(F)cn2)cc1Nc1ccccc1S(C)(=O)=O  concentration at 0.5 h    2100

---

Measured remaining at 10 min accompanies every entry in the list below.
# protocol_details: Metabolic stability in rat liver microsomes assessed as parent compound remaining after 10 mins
# Assay type: ADME, Microsome
# condition_label: read-out: Stability
property_label: remaining at 10 min (%)

> print(dat)
                                smiles.text       property.label  result
1    CNC(=O)c1cnc(Nc2ccc(F)cn2)cc1Nc1ccccc1  remaining at 10 min      65
2  CCS(=O)(=O)c1ccccc1Nc1cc(Nc2ccc(F)cn2)ncc1C(=O)NC  remaining at 10 min      76
3  CS(=O)(=O)c1ccccc1Nc1cc(Nc2ccc(F)cn2)ncc1C(N)=O  remaining at 10 min       3
4  CNC(=O)c1cnc(Nc2ccc(F)cn2)cc1Nc1ccc(F)c(F)c1OC  remaining at 10 min      73
5  CNC(=O)c1cnc(Nc2ccc(F)cn2)cc1Nc1ccccc1C(N)=O  remaining at 10 min      83
6  CNC(=O)c1cnc(Nc2ccc(F)cn2)cc1Nc1ccccc1S(C)(=O)=O  remaining at 10 min      85
7  [2H]C([2H])([2H])NC(=O)c1cnc(Nc2ccc(F)cn2)cc1Nc1ccccc1S(C)(=O)=O  remaining at 10 min      91
8  CNC(=O)c1cnc(Nc2ccc(F)cn2)cc1Nc1ccccc1SC  remaining at 10 min       9
9  CNC(=O)c1cnc(Nc2ccc(F)cn2)cc1Nc1ccccc1OC  remaining at 10 min      28

---

# target_entity: Tyrosine-protein kinase JAK1 (Homo sapiens, UniProt P23458)
# Sequence (P23458 whole entry, the tested form may be a part): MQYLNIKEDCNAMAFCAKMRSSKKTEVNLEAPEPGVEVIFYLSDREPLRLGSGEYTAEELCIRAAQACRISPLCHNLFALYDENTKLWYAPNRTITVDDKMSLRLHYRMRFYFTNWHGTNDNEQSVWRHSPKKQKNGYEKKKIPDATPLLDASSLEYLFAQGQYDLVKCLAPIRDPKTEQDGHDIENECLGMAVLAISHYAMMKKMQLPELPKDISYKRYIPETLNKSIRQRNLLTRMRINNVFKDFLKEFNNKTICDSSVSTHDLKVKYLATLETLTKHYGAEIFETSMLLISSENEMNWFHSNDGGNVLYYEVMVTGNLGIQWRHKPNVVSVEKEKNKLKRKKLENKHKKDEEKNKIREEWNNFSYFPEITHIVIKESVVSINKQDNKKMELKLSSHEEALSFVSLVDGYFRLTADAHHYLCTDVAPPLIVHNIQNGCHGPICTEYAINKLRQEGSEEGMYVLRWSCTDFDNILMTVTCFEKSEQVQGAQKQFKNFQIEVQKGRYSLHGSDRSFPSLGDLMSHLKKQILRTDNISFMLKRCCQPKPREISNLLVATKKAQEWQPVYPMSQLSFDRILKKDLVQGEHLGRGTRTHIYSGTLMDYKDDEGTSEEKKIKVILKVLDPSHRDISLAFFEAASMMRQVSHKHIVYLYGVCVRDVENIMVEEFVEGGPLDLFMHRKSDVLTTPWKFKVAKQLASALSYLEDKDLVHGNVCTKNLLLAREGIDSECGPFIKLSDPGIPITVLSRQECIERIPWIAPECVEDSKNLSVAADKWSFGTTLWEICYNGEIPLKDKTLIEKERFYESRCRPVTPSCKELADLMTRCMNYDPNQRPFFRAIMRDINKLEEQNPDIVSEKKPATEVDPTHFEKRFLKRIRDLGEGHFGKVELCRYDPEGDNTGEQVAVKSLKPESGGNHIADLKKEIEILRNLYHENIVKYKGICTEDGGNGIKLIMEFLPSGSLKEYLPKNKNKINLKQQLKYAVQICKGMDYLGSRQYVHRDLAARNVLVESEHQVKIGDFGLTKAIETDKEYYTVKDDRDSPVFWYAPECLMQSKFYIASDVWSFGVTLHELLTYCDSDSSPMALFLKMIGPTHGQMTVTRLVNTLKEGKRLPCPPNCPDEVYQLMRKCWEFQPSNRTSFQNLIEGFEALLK
# protocol_details: Inhibition of JAK1 JH1 domain (unknown origin)
pIC50: −log10 of the molar value.
Measured pIC50 accompanies every entry in the list below.
property_label: pIC50

> print(dat)
                                 smiles.text  result
 1  [2H]C([2H])([2H])NC(=O)c1nnc(Nc2ccccn2)cc1Nc1ccccc1S(C)(=O)=O  < 4.40
 2  CNC(=O)c1cnc(Nc2ccc(F)cn2)cc1Nc1ccccc1C(N)=O  < 5.70
 3  CCNC(=O)c1cnc(Nc2ccc(F)cn2)cc1Nc1ccccc1C(N)=O  < 5.70
 4  CNC(=O)c1cnc(Nc2ccc(F)cn2)cc1Nc1ccccc1S(C)(=O)=O  < 4.30
 5  NC(=O)c1ccccc1Nc1cc(Nc2ccc(F)cn2)ncc1C(=O)NC1CC1  < 5.70
 6  NC(=O)c1ccccc1Nc1cc(Nc2ccc(F)cn2)ncc1C(N)=O    7.59
 7  [2H]C([2H])([2H])NC(=O)c1nnc(NC(=O)C2CC2)cc1Nc1ccccc1S(C)(=O)=O  < 5.70
 8  CS(=O)(=O)c1ccccc1Nc1cc(Nc2ccc(F)cn2)ncc1C(N)=O    7.37
 9  CN(C)C(=O)c1cnc(Nc2ccc(F)cn2)cc1Nc1ccccc1C(N)=O  < 5.70
10  [2H]C([2H])([2H])NC(=O)c1cnc(Nc2ccc(F)cn2)cc1Nc1ccccc1S(C)(=O)=O  < 5.70
